Reference source for all entries: patent US12564583B2

tested on: U266; assay: Viability of sensitive cell line relative to DMSO; format: cell-based, human
Examples of molecules with documented Viability (%) (Relative to DMSO) follow.

Prompt: Name the reported Viability (%) (Relative to DMSO) value associated with the molecule `Cn1c(=O)ccn(CCCCc2ccccc2)c1=O`
Completion: 32.7%

Prompt: Same for O=C1CCC(NCCc2ccccn2)C(=O)N1 (stereo not shown)
Completion: 27.0%

Prompt: Param item: CNc1ccccc1C(=O)NCCNC1CC(=O)NC1=O (stereo not shown)
Completion: 0.1%

Prompt: Request: CN(Cc1ccccc1)C1CC(=O)NC1=O (stereo not shown)
Completion: 0%

###

test system: K562; assay: Viability of sensitive cell line relative to DMSO; type: cell-based
Recorded Viability (%) (Relative to DMSO) values for a group of molecules are listed next.
Record the value in %, omitting the unit from your answer.

O=C1CCC(NCCc2ccccn2)C(=O)N1 (stereo not shown)
80.0

Prompt: Field request: Viability (%) (Relative to DMSO) | item: `Cn1c(=O)ccn(CCCCc2ccccc2)c1=O`
Completion: 17.7

Prompt: How about CN(Cc1ccccc1)C1CC(=O)NC1=O (stereo not shown) ?
Completion: 116.7

Prompt: Moving on to CNc1ccccc1C(=O)NCCNC1CC(=O)NC1=O (stereo not shown)
Completion: 21.1

###

biological target: thalidomide binding domain (TBD) of cereblon (Homo sapiens); experiment: Cereblon binding (DSF, FP/FI); details: at 200 μM
Sequence (Q96SW2 318-426 limits assumed): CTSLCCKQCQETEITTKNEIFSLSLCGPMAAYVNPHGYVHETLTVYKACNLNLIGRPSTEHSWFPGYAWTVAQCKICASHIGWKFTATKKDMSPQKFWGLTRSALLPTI
value kind: Cereblon Binding (≥50% inhibition at 200 μM)

Take a look at these entries with their results.
CC(C)[C@H](NC(=O)c1ccccc1)C(=O)NC1CCC(=O)NC1=O (stereo partly drawn)
Yes*
Nc1cccc(F)c1C(=O)NCCn1ccc(=O)[nH]c1=O
Yes*
O=C1CCC(N2Cc3ccccc3C2)C(=O)N1 (stereo not drawn)
Yes*
O=C1CN(N2C(=O)c3cccc([N+](=O)[O-])c3C2=O)C(=O)N1
No

Prompt: Item `Nc1ccccc1S(=O)(=O)NCCn1ccc(=O)[nH]c1=O` has what recorded Cereblon Binding (≥50% inhibition at 200 μM)?
Completion: No

Prompt: What about this molecule? O=C1CCC(N2CCCC(c3ccccc3)C2)C(=O)N1 (stereo not drawn)
Completion: Yes*

###

List of viability values.
assay: Viability relative to DMSO; assay type: cell-based; design: concentration or dose not given beside the values
Non-standard residues stand in square brackets, D forms with d. Residues, ends and D or L forms follow the SMILES beside them. pGlu = O=C1CC[C@@H](C(=O)O)N1
Reply with just the number (in %).

Completed entries (count: 10):
COc1ccc(C2=NNC(=O)CC2)cc1OC
100
O=C1NC(=O)c2ccccc21
92.4
Nc1ccccc1C(=O)NCCn1cc(F)c(=O)[nH]c1=O
89.7
O=C1C[C@H](N2C(=O)c3ccccc3C2=O)C(=O)N1
85.6
O=C1CCC(N2CCc3ccccc32)C(=O)N1 (centres unmarked)
98.7
CC(C)C[C@H](NC(=O)[C@@H]1CCC(=O)N1)C(N)=O ([pGlu]-Leu-NH2)
110
Nc1cccc2c1C(=O)N(C1CCC(=O)NC1=O)C2=O (centres unmarked) [drawing 76]
96.3
Nc1cccc2c1CN(C1CCC(=O)NC1=O)C2=O (centres unmarked) [drawing 75]
99.9
CC(=O)N[C@H](C(=O)NC1CCC(=O)NC1=O)C(C)C (some centres unmarked)
79.4
COC(=O)c1ccccc1NC(=O)[C@H](CC(=O)NC1CCC(=O)NC1=O)NC(=O)OC(C)(C)C (some centres unmarked)
85.6

Prompt: Look up viability: O=C1CCC(NS(=O)(=O)c2cccc([N+](=O)[O-])c2)C(=O)N1 (centres unmarked)
Completion: 80

###

assay: Viability of sensitive cell line relative to DMSO; assay type: cell-based; parameters: concentration or dose not given beside the values; details: human, lymphocytes
viability listing for selected compounds.
A bare number is not enough; add the unit after it.

Take a look at these entries with their results.
Cn1c(=O)ccn(CCCCc2ccccc2)c1=O
94.2%
O=C1CCC(NCCc2ccccn2)C(=O)N1 (centres unmarked)
91.1%
CN(Cc1ccccc1)C1CC(=O)NC1=O (centres unmarked)
96.8%
Nc1cccc2c1CN(C1CCC(=O)NC1=O)C2=O (centres unmarked) [drawing 123]
99.9%

Prompt: Given the entry CNc1ccccc1C(=O)NCCNC1CC(=O)NC1=O (centres unmarked) , report its measured viability.
Completion: 92.6%

###

test: Viability relative to DMSO; type: cell-based; set-up: concentration or dose not given beside the values
Label Condition met when viability is strictly below 90%; at or above that, label Condition not met.

Worked examples, 3 compounds total:
Nc1cccc2c1C(=O)N(C1CC(=O)NC1=O)C2=O (stereo not shown)
Condition not met
Cc1ccc(C(=O)NC2CCC(=O)NC2=O)o1 (stereo not shown)
Condition met
O=C1CCC(N2CCC(c3ccccc3)CC2)C(=O)N1 (stereo not shown)
Condition not met

Prompt: Hello, is viability of the following compound strictly smaller than 90%? O=C1CCC(NCc2ccccc2)C(=O)N1 (stereo not shown)
Completion: Condition not met

Prompt: Same thing, different compound: `O=c1ccn(CCCCc2ccccc2)c(=O)[nH]1`
Completion: Condition met

Prompt: Now consider `O=C(NCCn1ccc(=O)[nH]c1=O)c1ccccc1` and answer again.
Completion: Condition met

Prompt: And for Nc1ccccc1S(=O)(=O)NC1CCC(=O)NC1=O (stereo not shown) ?
Completion: Condition not met

Prompt: And for O=C1CCC(N2CCc3ccc(O)cc3C2)C(=O)N1 (stereo not shown) ?
Completion: Condition not met

Prompt: Same question for `O=c1ccn(CCCc2ccccc2)c(=O)[nH]1` please.
Completion: Condition not met

Prompt: Try this compound too: `NC(=O)[C@H](Cc1ccccc1)NC(=O)[C@@H]1CCC(=O)N1`
Completion: Condition met

Prompt: Query O=C1CCC(N2Cc3ccccc3C2)C(=O)N1 (stereo not shown) next
Completion: Condition met

Prompt: Next: Cc1nc2cccc(N)c2c(=O)n1C1CCC(=O)NC1=O (stereo not shown)
Completion: Condition met

###

Here, each record is paired with measured Viability (%) (Relative to DMSO) data.
test system: THP-1; test: Viability of sensitive cell line relative to DMSO; format: cell-based
The answer should read as a number with its unit following.

CNc1ccccc1C(=O)NCCNC1CC(=O)NC1=O (stereo not shown)
41.1%
CN(Cc1ccccc1)C1CC(=O)NC1=O (stereo not shown)
32.6%
Cn1c(=O)ccn(CCCCc2ccccc2)c1=O
32.8%

Now, please, on to the next compound.
Prompt: Given the entry O=C1CCC(NCCc2ccccn2)C(=O)N1 (stereo not shown) , report its measured Viability (%) (Relative to DMSO).
Completion: 98.8%

###

Measured viability of individual entries
experiment: Viability relative to DMSO; format: cell-based; parameters: concentration or dose not given beside the values
Respond with the bare value in %.

Answered cases to consult:
CNc1ccccc1C(=O)NCCn1cc(F)c(=O)[nH]c1=O
79.2
O=C1CCC(NCCNC(=O)c2ccccc2)C(=O)N1 (stereo not drawn)
68.2
O=C1CC[C@@H](C(=O)Nc2ccccc2)N1
106
O=C1c2ccccc2C(=O)N1c1cc[nH]c(=O)c1
95.3

Prompt: Any idea what its viability is? The molecule is CC(C)[C@H](NC(=O)c1ccccc1)C(=O)NC1CCC(=O)NC1=O (stereo partly drawn)
Completion: 99.1

Prompt: Input O=C1CCC(NC(=O)c2ccccc2NC(=O)CCl)C(=O)N1 (stereo not drawn)
Completion: 69.9

Prompt: For `Nc1cccc(F)c1C(=O)NCCn1ccc(=O)[nH]c1=O` then?
Completion: 95

Prompt: Now the same for CCN(Cc1ccccc1)C1CCC(=O)NC1=O (stereo not drawn)
Completion: 99.1

Prompt: Same question for `Nc1ccccc1S(=O)(=O)NCCn1ccc(=O)[nH]c1=O` please.
Completion: 74.6

Prompt: And O=C1CC(N2C(=O)c3cccc([N+](=O)[O-])c3C2=O)C(=O)N1 (stereo not drawn) ?
Completion: 81.9

Prompt: Can you check Cn1cncc1C(=O)NC1CCC(=O)NC1=O (stereo not drawn) next?
Completion: 95.3

Prompt: How about this molecule: O=C1CCC(NCc2ccc(N3CCOCC3)cc2)C(=O)N1 (stereo not drawn)
Completion: 94.5

###

Form field: viability (one value per entry).
experiment: Viability relative to DMSO; type: cell-based; set-up: concentration or dose not given beside the values
Non-standard residues stand in square brackets, D forms with d. Residues, ends and D or L forms follow the SMILES beside them. pGlu = O=C1CC[C@@H](C(=O)O)N1
Note: unit % is implicit; provide only the numeric part.

Examples from the recorded data:
COC(=O)[C@H](C)NC(=O)[C@@H]1CCC(=O)N1 ([pGlu]-Ala-OMe)
101
O=C1CCC(N2CCc3ccc(Cl)cc3C2)C(=O)N1 (stereo not shown)
93.2
Nc1ccc(Cl)cc1C(=O)NCCN1CCC(=O)NC1=O
78.8
O=C1CCC(N2CCc3ccccc3C2)C(=O)N1 (stereo not shown)
99.5
O=c1ccn(CCNS(=O)(=O)Cc2ccccc2)c(=O)[nH]1
76.7
O=C1CCC(N2CCc3ccc([N+](=O)[O-])cc3C2)C(=O)N1 (stereo not shown)
84.2
CNc1ccccc1C(=O)NCCN1CCC(=O)NC1=O
101
CN(Cc1ccc2c(c1)OCO2)C1CCC(=O)NC1=O (stereo not shown)
106

Prompt: State the recorded viability for this entry: COc1ccc2c(c1)CCN(C1CCC(=O)NC1=O)C2 (stereo not shown)
Completion: 74.4

Prompt: Cool, now O=C1CC(N2C(=O)c3ccccc3C2=O)C(=O)N1 (stereo not shown)
Completion: 75.3

Prompt: Proceed to O=C1CCC(NC(=O)CCNS(=O)(=O)c2ccccc2)C(=O)N1 (stereo not shown)
Completion: 77.2

Prompt: Also `Cc1ccc(N)c(C(=O)NCCn2ccc(=O)[nH]c2=O)c1` , if possible.
Completion: 75.2
